Assay: qHTS assay to identify small molecule antagonists of the vitamin D receptor (VDR) signaling pathway - cell viability counter screen (AID 743225); further: nearly all actives have a fitted effect of over 50% in size
Conditions: VDR-bla HEK293T viability, CellTiter-Glo luminescence, 16 h; series mostly up to 61 µM
Inconclusive results are not listed. The source made the active and inactive calls. The call rests on the fitted dose curve; in most records, active means well fitted cell-killing curve with a large enough effect in the repeat runs; inconclusive means weak or mixed curves, or effect the other way; inactive means no such curve, though single readings can be large or run the other way.

COMPOUND | viability change, negative = cytotoxic
Nc1ccc(C(=O)Oc2ccccc2)c(O)c1 | inactive
CCCCCCCCC(=O)OCC(C)OC(=O)CCCCCCCC (stereo not drawn) | inactive
CC(=O)c1cccnc1 | inactive

----------
Test: qHTS RealTime-Glo MT Cell Viability Assay in HEK293 cells - 8 hour (AID 1224887); further: nearly all actives have a fitted effect of over 50% in size
Settings: RealTime-Glo luminescence; series mostly up to 76.8 µM
Text: U.S. Tox21 Program National Center for Advancing Translational Sciences [NCATS] NIH Chemical Genomics Center [NCGC] U.S. Environmental Protection Agency [EPA] National Institutes of Environmental Health Sciences [NIEHS] National Toxicology Program [NTP] U.S. Food and Drug Administration [FDA] Tox21 Assay Overview: Measure of cell viability is critical in the cell-base assay. Analysis of cell viability is necessary for the characterization of cell responses to cytotoxic drugs and environmental stress. […]
Results filed as inconclusive are left out. Calls of active or inactive are those of the source. The call rests on the fitted dose curve; in most records, active means well fitted cell-killing curve with a large enough effect in the repeat runs; inconclusive means weak or mixed curves, or effect the other way; inactive means flat fitted curve, though single readings scatter.
A correct response names exactly one class from Y for active, N for inactive

Here's what some known entries look like.
MOLECULE | GROUP
Cc1cc(N)n(-c2ccccc2)n1 | N
CCCCCCCCS | N
C/C(=C\C(C)CC(C)CC(C)C)C1CC(=O)OC1=O (stereo not given) | N
CC(C(=O)O)c1ccc(/C=C2\CCCCC2=O)cc1 (stereo not given) | N

Query block: Called result for `CC1(C)[C@@H]2CC[C@]3(C2)[C@@H]1C(=O)CCC3(C)C`
Result block: N

Query block: Called result for `CCc1cnc(C(=O)O)c(C(=O)O)c1`
Result block: N

Query block: Called result for `CCCCCCCCCCCCN1CCOCC1`
Result block: N

Query block: Called result for `C/C=C1\[C@H]2C=C(C)C[C@]1(N)c1ccc(=O)[nH]c1C2`
Result block: N

Query block: Called result for `O=C(c1ccc(Cl)cc1)c1ccc(Cl)cc1`
Result block: N

Query block: Called result for `C[C@@H](O)[C@H]1C(=O)N2C(C(=O)O)=C(S[C@@H]3CN[C@H](CNS(N)(=O)=O)C3)[C@H](C)[C@H]12`
Result block: N

Query block: Called result for `Sc1nc(S)nc(S)n1`
Result block: N

Query block: Called result for `[O-][n+]1ccc(Cl)cc1`
Result block: N

Query block: Called result for `CC(=O)S[C@H](C(=O)N[C@H]1Cc2ccccc2[C@H]2CCC[C@@H](C(=O)O)N2C1=O)C(C)C`
Result block: N

Query block: Called result for `CCCCCCCCCCCCSCCOCCO`
Result block: N

Query block: Called result for Cc1ccc(Cl)c(OCC(O)CNC(C)(C)C)c1 (stereo not given)
Result block: N

Query block: Called result for `CCOC(OCC)OCC`
Result block: N

Query block: Called result for `COc1ccc(/C=C/c2cc(OC)cc(=O)o2)cc1`
Result block: N

Query block: Called result for `C/C(=C(\CCO)SS/C(CCO)=C(\C)N(C=O)Cc1cnc(C)nc1N)N(C=O)Cc1cnc(C)nc1N`
Result block: N

Query block: Called result for `CO[C@@H]1COCC[C@@H]1N[C@@H]1CC[C@@](C(=O)N2CCc3ncc(C(F)(F)F)cc3C2)(C(C)C)C1`
Result block: Y

Query block: Called result for `CC(=O)c1cccnc1`
Result block: N

Query block: Called result for `O=Cc1ccc(Cl)c([N+](=O)[O-])c1`
Result block: N

Query block: Called result for `Cc1ccc(NC=O)c(C)c1`
Result block: N
